Taken from patent US20230235374A1.

measured-on: rRNA fragments I-IV of Stop-POST5
protocol-details: RNaseH fragment assay, Stop-POST5
reported-conditions: simple hyperbolic binding isotherm, FIG. 7A; read-out: apparent KD, photoincorporation into Fragment I (18S-A1195)
parameter: Kd
Field: value (include unit after the number)

Give its Kd value. Item: [N-]=[N+]=Nc1ccc(-c2nc(-c3cccc(C(=O)O)c3)no2)cc1
240 µM

* * *

measured-on: eRF1.eRF3.GDPNP ternary complex (Saccharomyces cerevisiae, UniProt P12385)
Sequence (P05453 166-685): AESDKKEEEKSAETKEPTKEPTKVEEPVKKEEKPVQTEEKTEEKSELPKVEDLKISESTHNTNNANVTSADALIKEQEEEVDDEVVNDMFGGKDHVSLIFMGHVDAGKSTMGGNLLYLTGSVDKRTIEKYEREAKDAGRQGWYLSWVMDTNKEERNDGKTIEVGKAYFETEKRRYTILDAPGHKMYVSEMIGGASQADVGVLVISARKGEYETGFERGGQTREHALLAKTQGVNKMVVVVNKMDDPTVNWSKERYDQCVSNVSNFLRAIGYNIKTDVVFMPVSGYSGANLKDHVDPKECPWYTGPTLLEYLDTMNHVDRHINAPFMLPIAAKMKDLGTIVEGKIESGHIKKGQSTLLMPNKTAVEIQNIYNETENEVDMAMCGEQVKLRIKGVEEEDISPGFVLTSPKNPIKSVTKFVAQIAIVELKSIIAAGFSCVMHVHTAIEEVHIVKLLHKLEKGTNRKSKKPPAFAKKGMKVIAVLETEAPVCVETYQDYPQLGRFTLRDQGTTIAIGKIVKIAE
Sequence (P12385 whole entry): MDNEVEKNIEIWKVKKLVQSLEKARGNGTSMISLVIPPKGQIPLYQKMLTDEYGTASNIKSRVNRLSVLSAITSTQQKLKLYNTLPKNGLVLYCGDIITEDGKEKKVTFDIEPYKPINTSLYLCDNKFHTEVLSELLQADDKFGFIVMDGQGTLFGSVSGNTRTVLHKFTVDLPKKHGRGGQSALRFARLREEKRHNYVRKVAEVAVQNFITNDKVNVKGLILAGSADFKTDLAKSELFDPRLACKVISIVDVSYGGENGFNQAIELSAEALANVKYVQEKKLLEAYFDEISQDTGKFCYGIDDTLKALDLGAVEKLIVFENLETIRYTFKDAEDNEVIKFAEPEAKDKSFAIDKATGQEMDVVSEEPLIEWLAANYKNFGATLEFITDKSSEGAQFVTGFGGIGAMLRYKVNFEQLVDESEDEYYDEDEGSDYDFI
protocol-details: [3H]-AzAt photoaffinity labeling of eRF1 within ternary complex
reported-conditions: two-site model; read-out: Kd, tight site photoincorporation into eRF1 within ternary complex
parameter: Kd
Field: value (include unit after the number)

Give its Kd value. Item: [N-]=[N+]=Nc1ccc(-c2nc(-c3cccc(C(=O)O)c3)no2)cc1 [AzAt]
90 µM

* * *

measured-on: eRF1 (Saccharomyces cerevisiae, UniProt P12385)
protocol-details: [3H]-AzAt photoaffinity labeling of isolated eRF1
reported-conditions: hyperbolic saturation curve; read-out: Kd, photoincorporation into isolated eRF1
parameter: Kd

Give its Kd value. Item: [N-]=[N+]=Nc1ccc(-c2nc(-c3cccc(C(=O)O)c3)no2)cc1
110 µM

* * *

System: premature stop codon in Stop-POST5 complex
protocol-details: PURE-LITE readthrough assay
Format: biochemical, shrimp (Artemia salina)
reported-conditions: FIG. 2A, read-out: apparent EC50, readthrough efficacy
parameter: EC50 (µM)
Kindly answer with a numeric value in µM, unit omitted.

Give its EC50 value. Item: [N-]=[N+]=Nc1ccc(-c2nc(-c3cccc(C(=O)O)c3)no2)cc1
50
